measuredQuantity: melting point

// lookup melting point for CC(=NNC(=O)c1ccncc1)c1c(O)c2ccccc2oc1=O [2h]
274 °C

Report melting point for CC(=NNC(=O)c1ccccc1[N+](=O)[O-])c1c(O)c2ccccc2oc1=O [2l] please.
219 °C

Which melting point is reported for this compound? CC(=NNC(=O)c1ccc(C)cc1)c1c(O)c2ccccc2oc1=O [2d]
251 to 252 °C

// lookup melting point for CC(=NNC(=O)c1cccs1)c1c(O)c2ccccc2oc1=O [2k]
228 to 228.5 °C

Requested field: melting point. Item: CC(=NNC(=O)c1ccc(N)cc1)c1c(O)c2ccccc2oc1=O [2g]
256 to 257 °C

# get_value(readout='melting point', item= CC(=NNC(=O)c1ccc(O)cc1)c1c(O)c2ccccc2oc1=O [2f] )
287 to 288 °C

Returns the measured melting point for the input compound. Input: CC(=O)NN=C(C)c1c(O)c2ccccc2oc1=O [2a]
248 to 249 °C

Given CC(=NNC(=O)c1ccco1)c1c(O)c2ccccc2oc1=O [2j] , state its recorded melting point.
254.5 to 255 °C

Name the recorded melting point for CC(=NNC(=O)c1ccc(Cl)cc1)c1c(O)c2ccccc2oc1=O [2e] .
248 to 248.5 °C

What melting point value was documented for this compound, CC(=NNC(=O)c1ccccc1O)c1c(O)c2ccccc2oc1=O [2i] ?
271 to 272 °C

Could you tell me which melting point is on file for CC(=NNC(=O)Cc1ccccc1)c1c(O)c2ccccc2oc1=O [2b] ?
216 to 217 °C
